Test system: Enterobacter cloaca (Ecl)
Assay: Minimal inhibitory concentration against multi-drug resistant bacteria
Assay type: cell-based
Conditions: NA: No Activity
PROPERTY_MEASURED: MIC (mg/L)

[a] COc1ccc(Nc2n[nH]c(/N=C/c3ccc(C)cc3)c2C(=O)Nc2ccc(C)cc2)cc1
[b] COc1ccc(Nc2n[nH]c(/N=C/c3ccc(Cl)cc3)c2C(=O)Nc2ccc(Cl)cc2)cc1
Problem: Which record shows the lower MIC: the first, a , or the second, b ? # answer = label of selected item
Result: b
(b: 62.5 mg/L, a: 125 mg/L)

[a] COc1ccc(Nc2n[nH]c(/N=C/c3ccccc3)c2C(=O)Nc2ccccc2)cc1
[b] COc1ccc(Nc2n[nH]c(/N=C/c3ccccc3)c2C(=O)Nc2ccc(Cl)cc2)cc1
Problem: Between a and b , which one shows the larger MIC value? # answer = label of selected item
Result: a
